# tgt: Integrin alpha-5/beta-1 (Homo sapiens, UniProt P05556+P08648)
# Sequence (P05556 21-798 limits assumed): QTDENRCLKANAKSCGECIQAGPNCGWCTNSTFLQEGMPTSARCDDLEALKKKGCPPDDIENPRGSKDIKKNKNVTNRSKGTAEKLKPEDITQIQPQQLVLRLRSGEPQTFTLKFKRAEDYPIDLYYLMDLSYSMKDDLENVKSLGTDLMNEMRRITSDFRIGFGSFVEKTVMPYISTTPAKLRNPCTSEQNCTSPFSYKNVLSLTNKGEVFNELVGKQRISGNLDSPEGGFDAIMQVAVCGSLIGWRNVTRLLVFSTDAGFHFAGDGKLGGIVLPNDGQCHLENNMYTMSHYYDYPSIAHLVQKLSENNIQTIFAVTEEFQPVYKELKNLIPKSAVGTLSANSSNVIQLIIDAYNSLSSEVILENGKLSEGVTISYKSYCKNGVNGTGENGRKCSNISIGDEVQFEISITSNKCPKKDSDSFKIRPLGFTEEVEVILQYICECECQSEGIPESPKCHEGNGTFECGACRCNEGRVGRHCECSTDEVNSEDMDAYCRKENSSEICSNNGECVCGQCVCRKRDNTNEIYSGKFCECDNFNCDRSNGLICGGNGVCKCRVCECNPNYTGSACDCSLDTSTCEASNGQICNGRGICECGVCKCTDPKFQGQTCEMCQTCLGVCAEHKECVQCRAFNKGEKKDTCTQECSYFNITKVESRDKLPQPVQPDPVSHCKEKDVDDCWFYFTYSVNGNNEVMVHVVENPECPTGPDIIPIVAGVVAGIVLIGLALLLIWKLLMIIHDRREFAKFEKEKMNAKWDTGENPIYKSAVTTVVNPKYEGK
# Sequence (P08648 42-894 limits assumed): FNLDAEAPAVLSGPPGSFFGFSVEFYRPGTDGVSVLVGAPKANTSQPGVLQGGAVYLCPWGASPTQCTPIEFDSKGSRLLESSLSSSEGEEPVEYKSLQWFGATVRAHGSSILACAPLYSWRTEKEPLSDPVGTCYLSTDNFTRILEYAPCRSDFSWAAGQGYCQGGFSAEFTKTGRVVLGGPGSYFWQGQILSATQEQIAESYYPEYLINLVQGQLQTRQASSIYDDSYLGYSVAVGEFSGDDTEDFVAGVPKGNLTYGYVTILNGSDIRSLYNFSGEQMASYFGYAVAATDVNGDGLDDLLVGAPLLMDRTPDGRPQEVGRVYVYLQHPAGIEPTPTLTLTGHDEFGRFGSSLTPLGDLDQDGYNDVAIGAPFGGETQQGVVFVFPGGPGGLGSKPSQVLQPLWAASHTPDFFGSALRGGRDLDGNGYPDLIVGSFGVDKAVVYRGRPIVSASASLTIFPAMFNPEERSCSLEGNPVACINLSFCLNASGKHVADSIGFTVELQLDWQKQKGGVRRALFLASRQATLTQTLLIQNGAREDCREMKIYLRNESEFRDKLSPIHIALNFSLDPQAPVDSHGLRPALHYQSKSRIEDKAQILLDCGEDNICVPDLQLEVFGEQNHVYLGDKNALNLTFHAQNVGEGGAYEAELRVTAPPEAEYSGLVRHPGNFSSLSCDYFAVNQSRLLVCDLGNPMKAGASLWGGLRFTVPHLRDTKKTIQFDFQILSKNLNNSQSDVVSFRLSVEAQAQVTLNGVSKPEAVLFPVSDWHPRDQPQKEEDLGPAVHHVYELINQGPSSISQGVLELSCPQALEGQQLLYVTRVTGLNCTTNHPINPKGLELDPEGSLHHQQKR
# Sequence (P08648 895-1049 limits assumed): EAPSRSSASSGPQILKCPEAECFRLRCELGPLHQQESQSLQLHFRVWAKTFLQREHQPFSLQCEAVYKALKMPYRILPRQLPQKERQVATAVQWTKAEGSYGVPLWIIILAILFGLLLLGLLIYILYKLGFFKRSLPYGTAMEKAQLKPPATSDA
# test_details: Inhibition of mouse melanoma B16-F10 cell adhesion to fibronectin
# Format: functional, cell-based
value_kind: pIC50
Give bare numbers, as −log10 of the molar value.

H-VTGRGDSPA-OH | 2.96

Next substance, pIC50 to be filled in.
Ask | Fill in: pIC50 of H-VYAVTGRGDSPA-NH2 is ___
Reply | 3.00

----------
# tgt: Protein farnesyltransferase (Homo sapiens, UniProt P49354+P49356)
# test_details: Inhibition of Farnesyltransferase by Scintillation Proximity Assay
value_kind: IC50 (nM)
One number for each entry, in nM.

CSCC[C@H](NC(=O)[C@@H](NC(=O)[C@@H](NC(=O)[C@H](CS)NC(=O)[C@H]1CCCN1C(=O)[C@H](CC(C)C)NC(=O)CNC(=O)[C@H](CCSC)NC(=O)[C@H](CO)N[C@H]1CC(=O)NCC(=O)N[C@H](CC(N)=O)C(=O)N[C@@H](Cc2c[nH]c3ccccc23)C(=O)N[C@H](Cc2c[nH]cn2)C(=O)NCC(=O)N[C@H]([C@@H](C)O)C(=O)N[C@@H](C)C(=O)N2CCC[C@@H]2C(=O)N1)C(C)C)C(C)C)C(=O)O | 420

Ask | Fill in: IC50 of CSCC[C@H](NC(=O)[C@@H](NC(=O)[C@@H](NC(=O)[C@H](CS)NC(=O)[C@@H]1CCCN1C(=O)[C@H](CC(C)C)NC(=O)CNC(=O)[C@H](CCSC)NC(=O)[C@@H](N)CO)C(C)C)C(C)C)C(=O)O is ___
Reply | 1200
